- study_target: UniProtKB P00734
- method_notes: Enzymatic assay for thrombin (Boc-VPR-AMC substrate)
- Type: biochemical
- settings: read-out: Thrombin Ki
Counter-ions that a name gives are not always drawn.
Please respond with reported Ki for every item in the list.

Query :: Checklist item: Ki tested on UniProtKB P00734, entry Cc1nc(N)ccc1CNC(=O)[C@H](C)NC(=O)[C@H]1CN(c2cccc3ccccc23)CCN1 [compound 1309, Dihydrochloride] , value?
Result :: > 25 µM

Query :: Checklist item: Ki tested on UniProtKB P00734, entry Cc1nc(N)ccc1CNC(=O)[C@H](C)NC(=O)[C@H]1C[C@H](Cc2ccc(-c3ccccc3)cc2)CN1 [compound 1351, Dihydrochloride] , value?
Result :: > 25 µM

Query :: Checklist item: Ki tested on UniProtKB P00734, entry COc1cc(CC[C@@H](N)C(=O)N[C@@H](C)C(=O)NCc2ccc(C(=N)N)cc2)cc(OC)c1 [compound 1112] , value?
Result :: < 0.5 µM

---

Please respond with reported Ki for every item in the list.
- study_target: human α-thrombin (Homo sapiens (Human), UniProt P00734)
- method_notes: Enzymatic assay for thrombin (Boc-VPR-AMC substrate)
- Type: biochemical
- settings: read-out: Thrombin Ki
Structures can show the parent of a compound that is named as a salt. Square brackets hold non-standard residues; d marks the D form. Peptide text beside a SMILES is read from it. * marks the point of attachment. dChg = N[C@@H](C(=O)O)C1CCCCC1; Agmatine = N=C(N)NCCCCN*; Aze = O=C(O)[C@@H]1CCN1

Query :: Query: Ki; subject: Cc1nc(N)ccc1CNC(=O)C(C)NC(=O)[C@H]1C[C@H](c2cccc(-c3ccccc3)c2)CN1 (stereo in doubt) [compound 1360, Di-trifluoroacetate salt]
Result :: > 25 µM

Query :: Query: Ki; subject: N=C(N)c1ccc(CNC(=O)[C@@H]2CCCN2C(=O)[C@H](N)C2CCCCC2)cc1
Result :: < 0.5 µM

Query :: Query: Ki; subject: N=C(N)NCCCCNC(=O)[C@@H]1CCN1C(=O)[C@H](N)C1CCCCC1 [compound 1006, Dihydrochloride] (H-[dChg]-[Aze]-Agmatine)
Result :: < 0.5 µM

Query :: Query: Ki; subject: C[C@H](NC(=O)[C@H]1C[C@H](Cc2ccccc2-c2ccccc2)CN1)C(=O)NCc1cc(Cl)ccc1-n1cnnn1 [compound 1402, Trifluoroacetate]
Result :: < 0.5 µM

Query :: Query: Ki; subject: C[C@H](NC(=O)[C@H](NCC(=O)O)C1CCCCC1)C(=O)NCc1ccc(C(=N)N)cc1
Result :: < 0.5 µM

Query :: Query: Ki; subject: CC(=O)Nc1ccc(CCN[C@H](CCc2ccccc2)C(=O)N[C@@H](C)C(=O)NCc2ccc(C(=N)N)cc2)cc1 [compound 1345, dihydrochloride]
Result :: < 0.5 µM

---

- study_target: MASP-2 (CCP1-CCP2-SP) (Homo sapiens (Human))
- Sequence (O00187 445-686): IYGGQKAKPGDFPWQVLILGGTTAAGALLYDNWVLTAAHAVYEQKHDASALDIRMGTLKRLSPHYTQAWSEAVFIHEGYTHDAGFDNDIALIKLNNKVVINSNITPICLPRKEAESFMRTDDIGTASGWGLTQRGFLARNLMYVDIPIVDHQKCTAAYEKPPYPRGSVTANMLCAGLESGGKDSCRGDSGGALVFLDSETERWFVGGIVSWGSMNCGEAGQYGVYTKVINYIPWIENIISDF
- method_notes: biochemical
- Format: biochemical
- settings: read-out: MASP-2 Ki
Where a name gives a salt, the structure may show the parent alone.
Please respond with reported Ki for every item in the list.

Query :: Query: Ki; subject: C[C@H](NC(=O)[C@H]1C[C@H](Cc2ccc(-c3cccnc3)cc2)CN1)C(=O)NCc1cc(Cl)ccc1-n1cnnn1 [compound 1404, Hydrochloride]
Result :: < 500 nM

Query :: Query: Ki; subject: Cc1nc(N)ccc1CNC(=O)[C@H](C)NC(=O)[C@H]1C[C@H](Cc2ccc(N3CCCC3=O)cc2)CN1 [compound 1391, Di-trifluoroacetate salt]
Result :: < 500 nM

Query :: Query: Ki; subject: N=C(N)c1ccc(CNC(=O)[C@@H]2CCN2C(=O)[C@H](N)CCc2ccccc2)cc1
Result :: < 500 nM
